Can you tell me melting point for the items I'm about to list?

In: Query: melting point; subject: CCOC(=O)c1cn(-c2cnc3ccccc3c2)cn1
Out: 170 to 171 °C

In: Tell me the measured melting point of CCc1nc2c(C)cc(C)nc2n1Cc1ccc(C(Cc2ccccc2)C(C(=O)O)C(=O)O)cc1 (centres undefined) , please.
Out: 127 to 128 °C

In: Form field: reported melting point of CC(=O)NNc1nc(O)nc(-c2ccc(Cl)cc2)n1
Out: 250 °C

In: Suppose we examine the molecule O=C(Nc1ccccc1)c1ccccc1Nc1ncnc2[nH]cc(C(=O)c3ccccc3)c12 ; what melting point value has been reported?
Out: > 300 °C

In: For COc1cc2cc(-c3cc(C)c(O)c(C)c3)[nH]c(=O)c2c(OC)c1CN1CCOCC1 , what is its reported melting point?
Out: 158 to 161 °C

In: If you can, please state the reported melting point value of C[C@@H](NS(=O)(=O)c1cccs1)c1cccc(C(=O)c2ccco2)c1 .
Out: 105 to 106 °C

In: GET /values?readout=melting point&item= CCN(CC)S(=O)(=O)c1ccc(N2N=C(C)C(=CNc3ccccc3OC)C2=O)cc1
Out: 191 °C

In: I have this molecule here, O=C(NC1CCCC1)c1cccc(-c2ccnc3c(C(=O)c4cccs4)cnn23)c1 , and I need its recorded melting point.
Out: 207 to 209 °C

In: // lookup melting point for CCCCCCCCCCCCCCC[C@H]1O[C@@H]1C(=O)OC
Out: 54 to 55 °C
